# ASSAY_NOTES: collision cross section in nitrogen (drift tube, single-field); higher = larger gas-phase ion size;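 note: chemical standards at 10 µM analysed by drift tube IMS-QTOF MS in about 3.95 torr nitrogen, mean of duplicate injections differing ≤1%, mass error below 10 ppm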
# CONDITION_DESCRIPTION: ion type: [M+Na]; ion source: ESI; ion mode: Positive
MEASUREMENT_LABEL: collision cross section in nitrogen (Å²)
One number for each entry, in Å².

Below, each entry is followed by its recorded collision cross section in nitrogen result.
[[record]]
compound = "N=C(N)c1ccc(OCCCCCOc2ccc(C(=N)N)cc2)cc1 [Pentamidine isethionate]"
unit_of_measurement = "Å²"
observed_measurement = 183.2

[[record]]
compound = "CO[C@H]1/C=C/O[C@@]2(C)Oc3c(C)c(O)c4c(O)c(c(/C=N/N5CCN(C)CC5)c(O)c4c3C2=O)NC(=O)/C(C)=C\\C=C\\[C@H](C)[C@H](O)[C@@H](C)[C@@H](O)[C@@H](C)[C@H](OC(C)=O)[C@@H]1C [Rifampicin]"
unit_of_measurement = "Å²"
observed_measurement = 279

[[record]]
compound = "OC[C@H]1O[C@H](O[C@]2(CCl)O[C@H](CCl)[C@@H](O)[C@@H]2O)[C@H](O)[C@@H](O)[C@H]1Cl [Sucralose]"
unit_of_measurement = "Å²"
observed_measurement = 179.7

[[record]]
compound = "CCCCNC(=O)NS(=O)(=O)c1ccc(C)cc1 [Tolbutamide]"
unit_of_measurement = "Å²"
observed_measurement = 176.6

[[record]]
compound = "CCCCOC(=O)N(C)SN(C)C(=O)Oc1cccc2c1OC(C)(C)C2 [Furathiocarb]"
unit_of_measurement = "Å²"
observed_measurement = 195


State recorded collision cross section in nitrogen for all listed compounds.
1. OCC(CO)(CO)COCC(CO)(CO)CO [Dipentaerythritol]
2. CC(=O)OCCOCCOCCOC(C)=O [Triethylene glycol diacetate]
3. Cc1ccc(S(=O)(=O)NC(=O)NN2CCCCCC2)cc1 [Tolazamide]
4. O=C(Nc1ccc2ccccc2c1)c1ccc(Cl)cc1Cl [2,4-Dichloro-N-(naphthalene-2-yl)benzamide]
5. C#CC(C)N(C)C(=O)Nc1ccc(Cl)cc1 (configuration not stated) [Buturon]

1: 157.9; 2: 151.3; 3: 183.1; 4: 184.5; 5: 166.1

State recorded collision cross section in nitrogen for all listed compounds.
1. COCCc1ccc(OCC(O)CNC(C)C)cc1 (configuration not stated) [Metoprolol]
2. O=C(NC(=O)c1ccccc1Cl)Nc1ccc(OC(F)(F)F)cc1 [Triflumuron]
3. COC(=O)N(C(=O)N1COC2(C(=O)OC)Cc3cc(Cl)ccc3C2=N1)c1ccc(OC(F)(F)F)cc1 (racemic) [(+/-)-Indoxacarb]
4. CCN(CC)c1ccc2c(C)cc(=O)oc2c1 [7-Diethylamino-4-methylcoumarin]
5. COP(=O)(CCC(=O)NCO)OC [Dimethyl (3-((hydroxymethyl)amino)-3-oxopropyl)phosphonate]
6. CCCCNc1ccc(NCCCC)c2c1C(=O)c1ccccc1C2=O [1,4-Bis(butylamino)anthracene-9,10-dione]
7. C[C@]12C=CC(=O)C=C1CC[C@@H]1[C@@H]2[C@@H](O)C[C@@]2(C)[C@H]1CC[C@]2(O)C(=O)CO [Prednisolone]
8. C=CCOCC(CC)(CO)COCC=C [2,2-Bis[(prop-2-en-1-yloxy)methyl]butan-1-ol]

164
186.6
220.6
176.4
144
207.7
210.8
150

State recorded collision cross section in nitrogen for all listed compounds.
1. COCC(=O)N(c1c(C)cccc1C)C(C)C(=O)OC (configuration not stated) [Metalaxyl]
2. CNC(=O)ON=C(SC)C(=O)N(C)C [Oxamyl]
3. C/C(=N\C#N)N(C)Cc1ccc(Cl)nc1 [Acetamiprid]

1. 169.4
2. 150.9
3. 157.7

Sample CCc1cc(C)cc(CC)c1-c1c(OC(=O)C(C)(C)C)n2n(c1=O)CCOCC2 [Pinoxaden] — what was its collision cross section in nitrogen? 202.8
